Attribution: patent US10508109B2

Known log10 IC50 of a selection of compounds
# Target Entity: SUV39H2 (Homo sapiens (Human))
# Sequence (Q9H5I1 whole entry): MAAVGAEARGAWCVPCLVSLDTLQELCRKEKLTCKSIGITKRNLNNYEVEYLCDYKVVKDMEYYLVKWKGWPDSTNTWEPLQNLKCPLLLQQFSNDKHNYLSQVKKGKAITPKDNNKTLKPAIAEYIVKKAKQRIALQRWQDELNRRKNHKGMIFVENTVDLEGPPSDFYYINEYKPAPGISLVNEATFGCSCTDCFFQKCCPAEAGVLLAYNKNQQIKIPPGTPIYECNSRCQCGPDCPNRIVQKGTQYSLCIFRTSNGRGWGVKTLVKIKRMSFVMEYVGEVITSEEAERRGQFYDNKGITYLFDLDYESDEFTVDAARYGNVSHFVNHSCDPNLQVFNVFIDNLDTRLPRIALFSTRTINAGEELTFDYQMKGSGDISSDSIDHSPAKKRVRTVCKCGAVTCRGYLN
# Test Context: read-out: IC50 (μM) Suv 39H2 assay; enzyme assay
Counter-ions that a name gives are not always drawn.
Property Label: log10 IC50 (log10 of the value in µM)

Compound: COc1cc(OC)c(-c2cn3ccc(N4CCC(NS(C)(=O)=O)C4)cc3n2)cc1Cl (centres unmarked)
Property Label: log10 IC50
Assay Result: -2.42
//
Compound: COc1cc(OC)c(-c2cn3ccc(N[C@H]4CC[C@H](Nc5ccccn5)CC4)cc3n2)cc1Cl
Property Label: log10 IC50
Assay Result: -1.49
//
Compound: COc1cc(OC)c(-c2cn3ccc(N4CCN(c5ccnc(N)n5)CC4)cc3n2)cc1Cl
Property Label: log10 IC50
Assay Result: -2.03
//
Compound: COc1cc(OC)c(-c2cn3ccc(NC(=O)[C@@H]4CCCN4C)cc3n2)cc1Cl
Property Label: log10 IC50
Assay Result: -1.19
//
Compound: COc1cc(OCCCN(C)C)c(-c2cn3ccc(N4CCC(NC(=O)C(C)(C)C)CC4)cc3n2)cc1Cl
Property Label: log10 IC50
Assay Result: -1.68
//
Compound: COc1cc(OC)c(-c2cn3ccc(N4CCN(c5ccnc(N(C)C)n5)CC4)cc3n2)cc1Cl
Property Label: log10 IC50
Assay Result: -1.47
//
Compound: COc1cc(OC)c(-c2cn3cc(NCCN)c(N4CCN(C(=O)OC(C)(C)C)CC4)nc3n2)cc1Cl
Property Label: log10 IC50
Assay Result: -1.93
//
Compound: COc1cc(OC)c(-c2cn3ccc(N4CCCCC4)cc3n2)cc1Cl [Example 25, hydrobromide]
Property Label: log10 IC50
Assay Result: -1.91

###

# Target Entity: SUV39H2 (Homo sapiens (Human))
# Test Context: read-out: IC50 (μM) Suv 39H2 assay; enzyme assay

Compound: COc1cc(OCC2CC2)c(-c2cn3ccc(N4CCCC4)cc3n2)cc1Cl [Example 82]
IC50, µM: 0.00538

Compound: COc1cc(OC)c(-c2cn3ccc(N4CC[C@@H](NC(=O)OC(C)(C)C)C4)nc3n2)cc1Cl [Example 57]
IC50, µM: 0.0108

Compound: COc1cc(OCCCN(C)C)c(-c2cn3ccc(N4CCN(C(=O)C(C)(C)C)CC4)cc3n2)cc1Cl [Example 156]
IC50, µM: 0.0344

Compound: COc1cc(OC)c(-c2cn3ccc(NCCNC(C)=O)cc3n2)cc1Cl [Example 77]
IC50, µM: 0.0101

Compound: COc1cc(OC)c(-c2cn3ccc(N4CCOCC4)cc3n2)cc1C#N [Example 93]
IC50, µM: 0.0119

Compound: CCCS(=O)(=O)N1CCN(c2ccn3cc(-c4cc(Cl)c(OC)cc4OC)nc3c2)CC1 [Example 170]
IC50, µM: 0.0219

Compound: COc1cc(OC)c(-c2cn3ccc(N4CCC(NS(C)(=O)=O)CC4)nc3n2)cc1Cl [Example 192]
IC50, µM: 0.0148

Compound: COCCN1CCN(c2ccn3cc(-c4cc(Cl)c(OC)cc4OC)nc3c2)CC1 [Example 105]
IC50, µM: 0.0111

###

# Target Entity: UniProt:Q9H5I1
# Test Context: read-out: IC50 (μM) Suv 39H2 assay; enzyme assay
Assign labels as follows, please: yes for IC50 below 0.02 µM; no for IC50 equal to or exceeding 0.02 µM.

Compound: COc1cc(OC)c(-c2cn3ccc(N4CCC(NC(C)=O)CC4)cc3n2)cc1Cl
Classification: yes

Compound: COc1cc(OCCCN(C)C)c(-c2cn3ccc(N4CCN(S(=O)(=O)C5CCCC5)CC4)nc3n2)cc1Cl
Classification: no

Compound: COc1cc(OC)c(-c2cn3ccc(-c4ccc(C(=O)NCC5CCCN5)cc4)cc3n2)cc1Cl (centres unmarked)
Classification: yes

Compound: COc1cc(OC)c(-c2cn3ccc(C4CCC(=O)CC4)cc3n2)cc1Cl
Classification: no

Compound: COc1cc(OCCCN(C)C)c(-c2cn3ccc(N4CCCC4)cc3n2)cc1Cl
Classification: yes

Compound: COc1cc(OC)c(-c2cn3ccc(NCCCN)cc3n2)cc1Cl
Classification: yes

Compound: COC(=O)N1CC=C(c2ccn3cc(-c4cc(Cl)c(OC)cc4OC)nc3c2)CC1
Classification: no

Compound: COc1cc(OC)c(-c2cn3ccc(N4CCC(NC(=O)CCNC(=O)OC(C)(C)C)C4)nc3n2)cc1Br (centres unmarked)
Classification: yes

Compound: COc1cc(OC)c(-c2cn3ccc(C4=CCN(CCN5CCCCC5)CC4)cc3n2)cc1Cl
Classification: no

Compound: COC(=O)N1CCN(c2ccn3cc(-c4cc(Cl)c(OC)cc4OC)nc3n2)CC1
Classification: yes

Compound: COCCCN1CCN(c2ccn3cc(-c4cc(Cl)c(OC)cc4OC)nc3c2)CC1
Classification: yes

Compound: COc1cc(OC)c(-c2cn3ccc(N4CCC(NC(=O)OC(C)(C)C)C4)nc3n2)cc1Br (centres unmarked)
Classification: no

Compound: COc1cc(OC)c(-c2cn3ccc(N)nc3n2)cc1Cl
Classification: yes

Compound: COc1cc(OC)c(-c2cn3ccc(N4CCN(S(C)(=O)=O)CC4)cc3n2)cc1Cl
Classification: yes

Compound: COc1cc(OC)c(-c2cn3ccc(N4CC[C@H](NC(=O)OC(C)(C)C)C4)cc3n2)cc1Cl
Classification: yes

Compound: COc1cc(OC)c(-c2cn3ccc(N4CCC(N)C4)cc3n2)cc1C#N (centres unmarked)
Classification: yes

Compound: COc1cc(OC)c(-c2cn3ccc(OC4CCN(c5ccnc(N)n5)CC4)cc3n2)cc1Cl
Classification: no
